Test: growth inhibitors of H69AR lung tumor, primary screen, human, duplicate replicates (AID 580);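 further: 100% = mean luminescence of untreated wells and 0% = no signal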
Conditions: H69AR lung tumor cells viability, ATP luminescence, 72 h; at 10 µM; hits give low values
property_label: viability (%)
Dear colleague, please return just the value in %, with no unit written.

Q: Fill in: viability of `CCOC(=O)CSc1nnc(CNC(=O)c2ccc(S(=O)(=O)N3CCCC3)cc2)n1C` is ___
Ans: 112

Q: Next entry: `Cc1sc2nc3n(c(=O)c2c1C)NC(=O)CC3`
Ans: 94

Q: Next entry: `CCOC(=O)COc1ccc(S(=O)(=O)N2CCc3ccccc3C2)cc1`
Ans: 96.7

Q: Next entry: `Cc1ccc2c(C(=O)CN3CCSCC3)c(C)[nH]c2c1`
Ans: 74.2

Q: Next entry: `COc1ccc(-c2c(=O)n(OCc3ccccn3)c3ccccc3[n+]2[O-])cc1OC`
Ans: 89.2

Q: Next entry: `Cc1ccccc1OCc1nc2ccccc2c(=O)n1/N=C/c1ccco1`
Ans: 104

Q: Next entry: `CCOC(=O)c1cc2sc(C)cc2n1CC(=O)Nc1cccc(C)c1C`
Ans: 91.2

Q: Next entry: `CC1(C)CC(=O)CC(C)(C)N1OC(=O)c1ccccn1`
Ans: 102

Q: Next entry: CCOC(=O)CN1CC23C=CC(O2)C(C(=O)NCc2ccc(F)cc2)C3C1=O (stereo not drawn)
Ans: 98.9

Q: Next entry: `CCOC(=O)c1ccc(NS(=O)(=O)c2ccc3c(c2)CCCN3C(C)=O)cc1`
Ans: 89.8

Q: Next entry: `Cn1c(Cc2cccs2)nnc1SCC(=O)N1CCc2ccccc21`
Ans: 84.3

Q: Next entry: `CCC(=O)Oc1ccc(C/C(=N\O)c2ccc(O)cc2O)o1`
Ans: 52.5

Q: Next entry: `C=CCSc1n[nH]c(-c2ccc(OC)cc2)n1`
Ans: 90.3

Q: Next entry: `O=C(CSc1nnc(SCc2ccc(Cl)cc2)s1)N1CCN(C(=O)c2ccco2)CC1`
Ans: 100

Q: Next entry: `COc1ccccc1N1CCN(C(=O)c2cc(-c3ccc(Cl)c(Cl)c3)on2)CC1`
Ans: 57.9

Q: Next entry: Cc1cn(C2CC3OCC3O2)c(=O)[nH]c1=O (stereo not drawn)
Ans: 94.2

Q: Next entry: `Cc1nc(SCC(=O)Nc2cc(C)on2)c2c3c(sc2n1)CCCC3`
Ans: 30.4

Q: Next entry: `CCOC(=O)Cc1csc(/C(=N/O)C(N)=O)n1`
Ans: 92.6

Q: Next entry: `Nc1nonc1-c1noc(-c2ccccc2Br)n1`
Ans: 95.1

Q: Next entry: `COc1cc(SC)ccc1C(=O)Nc1ccccc1C#N`
Ans: 70.5

Q: Next entry: CCC1CCCCN1C(=O)C1CC(c2cc(Cl)c(OC)cc2OC)=NO1 (stereo not drawn)
Ans: 96.6

Q: Next entry: COc1ccccc1NC1=NC(c2ccc(Cl)cc2)N=C(N)N1 (stereo not drawn)
Ans: 10

Q: Next entry: CCOC(=O)c1cnc(SC2CC(=O)N(c3ccc(OC)c(OC)c3)C2=O)nc1N (stereo not drawn)
Ans: 111

Q: Next entry: `O=C(O)c1ccc(NC(=O)c2cccs2)cc1`
Ans: 92.5

Q: Next entry: `Cc1ccnc(NS(=O)(=O)c2ccc(NC(=O)Cc3cccs3)cc2)n1`
Ans: 100

Q: Next entry: `CSc1nsc(SCC(=O)N2CCc3ccccc32)n1`
Ans: 96.8

Q: Next entry: `Cc1cc(C)c2ccc(N)nc2c1O`
Ans: 21.4

Q: Next entry: `CCN(CC)CCOC(=O)c1ccc(NC(=O)COc2cc(=O)n(CC)c3ccccc23)cc1`
Ans: 109

Q: Next entry: COC(=O)C1C2C=CC3(CN(CC4CCCO4)C(=O)C13)O2 (stereo not drawn)
Ans: 102

Q: Next entry: `Cn1cnc2c1c(=O)n(Cc1cccc(Br)c1)c(=O)n2C`
Ans: 86.9

Q: Next entry: `CC(=O)N1CCc2cc(S(=O)(=O)NCCC(=O)Nc3cc(C)cc(C)c3)ccc21`
Ans: 95.6

Q: Next entry: `Cc1cnn(C(=S)NCc2ccco2)c1`
Ans: 84.5

Q: Next entry: CCC12CN3CC(CC)(CN(C1)C3c1ccc(OC(C)C)cc1)C2=O (stereo not drawn)
Ans: 105
